Assay: PK properties assay in SD rats
Assay type: in vivo
Details: rat, plasma, po 5 mg/kg
value type: bioavailability (%)
Give just the numeric value; % need not be written.

NC(=O)c1c(-c2ccc(Oc3ccccc3)cc2)nc2n1NCCC2C1CCN(C(=O)/C=C/C(F)(F)F)CC1 (single isomer, unassigned) [10a (peak 1)]; 47.2

The record that follows has no bioavailability shown yet.
Entry C=CC(=O)N1CCC(C2CCNn3c2nc(-c2ccc(Oc4ccccc4)cc2)c3C(N)=O)CC1 (single isomer, unassigned) [1a (peak 1)] has what bioavailability?
52.9

====

Experiment: PK properties assay in SD rats
Type: in vivo
Details: rat, plasma, po 5 mg/kg
value type: half-life (h)
Express your answer in h, writing the number without its unit.

C=CC(=O)N1CCC(C2CCNn3c2nc(-c2ccc(Oc4ccccc4)cc2)c3C(N)=O)CC1 (single isomer, unassigned) [1a (peak 1)]; 1.41

We next turn to a different compound, shown below.
I'd like to know its half-life. The compound in question is NC(=O)c1c(-c2ccc(Oc3ccccc3)cc2)nc2n1NCCC2C1CCN(C(=O)/C=C/C(F)(F)F)CC1 (single isomer, unassigned) [10a (peak 1)]
1.45
